# System: RPMI 8226 (cancer type: MM)
# assay-comment: normalized area under the dose-response curve (viability relative to DMSO control) (fraction); higher = less sensitive (more viable cells)
# setup-conditions: exposure time not given
The label depends only on normalized area under the dose-response curve: YES if it is at least 0.9, NO if it is smaller.

Qu. Please tell me: is the compound COc1cc(Nc2c(C#N)cnc3cc(OCCCN4CCN(C)CC4)c(OC)cc23)c(Cl)cc1Cl at or over 0.9 in terms of normalized area under the dose-response curve?
Ans. NO

Qu. Exam item: decide whether the reported normalized area under the dose-response curve for CC1(C)CCC(CN2CCN(c3ccc(C(=O)NS(=O)(=O)c4ccc(NCC5CCOCC5)c([N+](=O)[O-])c4)c(Oc4cnc5[nH]ccc5c4)c3)CC2)=C(c2ccc(Cl)cc2)C1 is at least 0.9.
Ans. NO

Qu. Say whether CCc1cnn2c(NCc3ccc[n+]([O-])c3)cc(N3CCCC[C@H]3CCO)nc12 shows normalized area under the dose-response curve of 0.9 or more.
Ans. NO

Qu. Test whether the compound CC(=O)O[C@H]1C(=O)[C@@]2(C)[C@H]([C@H](OC(=O)c3ccccc3)[C@]3(O)C[C@H](OC(=O)[C@H](O)[C@@H](NC(=O)c4ccccc4)c4ccccc4)C(C)=C1C3(C)C)[C@]1(OC(C)=O)CO[C@@H]1C[C@@H]2O records normalized area under the dose-response curve of 0.9 or higher.
Ans. NO

Qu. Reported normalized area under the dose-response curve at or above 0.9? C=CC(=O)N1CCC[C@@H](n2nc(-c3ccc(Oc4ccccc4)cc3)c3c(N)ncnc32)C1
Ans. NO

Qu. Is it the case that N#CC[C@H](C1CCCC1)n1cc(-c2ncnc3[nH]ccc23)cn1 has normalized area under the dose-response curve reaching or exceeding 0.9?
Ans. YES

Qu. Hi, just wondering whether Cc1sc2c(c1C)C(c1ccc(Cl)cc1)=N[C@@H](CC(=O)OC(C)(C)C)c1nnc(C)n1-2 shows normalized area under the dose-response curve of 0.9 or higher.
Ans. NO

Qu. // inclusive: normalized area under the dose-response curve at least 0.9? input: Nc1nc(Cl)nc2c1ncn2[C@H]1C[C@H](O)[C@@H](CO)O1
Ans. YES
